# Measurement Notes: inhibitors of TNFa-induced NFkB p65 translocation, primary screen, imaging, HUVEC, MLSMR starter and 10KST1 sets (AID 438);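 note: compound added about 3h40 before a 20 min TNFalpha stimulation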
# Reported Conditions: HUVEC TNFa-induced p65 nuclear translocation; measured here: nuclei count (cytotoxicity indicator), at 2.08 µM
Examples of compounds with documented cell count follow.

Worked cases, answers included:
O=S(=O)(c1ccccc1)N(CC(O)CN1CCCCC1)c1ccccc1 (stereo unspecified)	596
CCOC(=O)CC12CN3CN(C1)CC(CC(=O)OCC)(C3)C2=O	596
COc1ccc(N2C(=O)CC(N(Cc3ccc(S(N)(=O)=O)cc3)C(C)=O)C2=O)cc1 (stereo unspecified)	550
COc1ccc2nc3oc(C(=O)N4CCCCC4)cc3cc2c1	194

Name the recorded cell count for CC(C)Cn1c(CN2CCN(c3ccccc3F)CC2)nc2c1c(=O)[nH]c(=O)n2C . 664

What does the data say about its cell count? Entry: N#Cc1c(N2CCOCC2)nc(-c2ccco2)c2c1CCCC2 536

Could you share which cell count value was measured for CCC(C)NC(=O)c1cn(CC)c2ccc(S(=O)(=O)N(C)C)cc2c1=O (stereo unspecified) ? 603
